Assay: Solubility of hexadecylphosphocholine in co-solvent systems at 25° C.
Format: physicochemical
Conditions: co-solvent system (hexylene glycol/propylene glycol/water), aqueous with cosolvent or surfactant or cyclodextrin, hexylene glycol 22, propylene glycol 44, Transcutol P 0, water 34 % v/v
readout-label: solubility (mg/mL)
Give bare numbers, in mg/mL.

Suppose we examine the compound CCCCCCCCCCCCCCCCOP(=O)([O-])OCC[N+](C)(C)C [hexadecylphosphocholine] ; what solubility value has been reported? 138

====

Test: Solubility of hexadecylphosphocholine in co-solvent systems at 25° C.
Assay type: physicochemical
Details: aqueous with cosolvent or surfactant or cyclodextrin, hexylene glycol 22, propylene glycol 44, Transcutol P 2, water 32 % v/v
readout-label: solubility
Note to self: number, then unit, no commentary.

Suppose we examine the compound CCCCCCCCCCCCCCCCOP(=O)([O-])OCC[N+](C)(C)C ; what solubility value has been reported? 153 mg/mL
